B1: library; numbered along this chain (parent)
chain: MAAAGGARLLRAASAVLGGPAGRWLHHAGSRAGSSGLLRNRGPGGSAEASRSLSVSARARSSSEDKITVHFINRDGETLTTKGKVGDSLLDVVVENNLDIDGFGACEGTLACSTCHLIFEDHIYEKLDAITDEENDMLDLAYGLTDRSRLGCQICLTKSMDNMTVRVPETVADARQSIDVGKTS

- Variants of: B1
- TEST_METHOD_NOTES: scaled log2 fold change in cell abundance, elesclomol vs control (0 = silent mean, 1 = nonsense mean) (scaled log2 ratio); higher = higher viability under elesclomol (loss of FDX1 cuproptosis function);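 further: variant abundance is its share of total variant reads in each endpoint sample, from next-generation sequencing of the integrated ORF PCR-amplified out of genomic DNA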
- MEASUREMENT_CONDITIONS: with ABC1 FDX1 KO; elesclomol 5 nM; glucose 10 mM; 14 days
VALUE_TYPE: scaled log2 fold change
One number for each entry.

Some solved cases for reference:
*Q* Entry under review: L37P . Reported scaled log2 fold change?
*A* 0.51

*Q* // next record M160G
*A* 0.381

*Q* Now consider G29M and answer again.
*A* -0.124

Give one value of scaled log2 fold change per listed variant.
1. A47R
2. A141R

*A*
1: 0.994; 2: 0.0996
